Where do the numbers come from? From PubChem BioAssay (NCI).

System: BT-549 breast
Test: NCI-60 one-dose screen, 48 h (100 = growth as untreated, 0 = no growth, -100 = all killed)
Settings: 10 µM unless noted
This is part of a sample that, as a whole, favours compounds with a hit. Of some 83,000 tested, about 20% had one in any assay.
Assign True whenever growth does not fall below 70%; assign False whenever it does.

Query :: Reported growth at or above 70%? "COC(c1ccccc1)(c1ccccc1)c1ccccc1"
Result :: True

Query :: Reported growth at or above 70%? "COc1cc(-c2cc(-c3nc4ccccc4[nH]3)[nH]n2)cc(OC)c1OC"
Result :: False

Query :: Reported growth at or above 70%? "COC(=O)CNc1nc(N(C)O)nc(N(C)O)n1"
Result :: False

Query :: Reported growth at or above 70%? "CCNCCCn1c2c(c3ccc([N+](=O)[O-])cc3c1=O)C(=O)c1cc(OC)cnc1-2"
Result :: False
